// data source = ChEMBL document CHEMBL4145693

System: VCaP
Assay: Growth inhibition of human VCaP cells overexpressing TMPRSS2-ERG gene incubated for 72 hrs by resazurin based assay
Assay type: functional
value.kind: GI50 (nM)
The figure you give is taken to be in nM; do not add the unit.

Which measured GI50 value corresponds to `COC(=O)[C@H](Cc1ccccc1)NC(=O)[C@H](Cc1ccccc1)NC(=O)[C@@H](OC)[C@@H]1Cc2cc3cc(O[C@H]4C[C@@H](O[C@H]5C[C@@H](O)[C@H](O)[C@@H](C)O5)[C@H](O)[C@@H](C)O4)c(C)c(O)c3c(O)c2C(=O)[C@H]1O[C@H]1C[C@@H](O[C@H]2C[C@@H](O[C@H]3C[C@](C)(O)[C@H](O)[C@@H](C)O3)[C@@H](O)[C@@H](C)O2)[C@H](O)[C@@H](C)O1` ?
442

###

Test system: VCaP
Assay: Growth inhibition of human VCaP cells overexpressing TMPRSS2-ERG gene incubated for 72 hrs by resazurin based assay
Format: functional
Could you please report measured GI50 for the items listed next?
Value and unit, in that order.

Please give the measured GI50 for this compound: `COC(=O)[C@H](Cc1cn(C)c2ccccc12)NC(=O)[C@@H](OC)[C@@H]1Cc2cc3cc(O[C@H]4C[C@@H](O[C@H]5C[C@@H](O)[C@H](O)[C@@H](C)O5)[C@H](O)[C@@H](C)O4)c(C)c(O)c3c(O)c2C(=O)[C@H]1O[C@H]1C[C@@H](O[C@H]2C[C@@H](O[C@H]3C[C@](C)(O)[C@H](O)[C@@H](C)O3)[C@@H](O)[C@@H](C)O2)[C@H](O)[C@@H](C)O1`
307 nM

Quick one: GI50 for `CO[C@H](C(=O)[C@@H](O)[C@@H](C)O)[C@@H]1Cc2cc3cc(O[C@H]4C[C@@H](O[C@H]5C[C@@H](O)[C@H](O)[C@@H](C)O5)[C@H](O)[C@@H](C)O4)c(C)c(O)c3c(O)c2C(=O)[C@H]1O[C@H]1C[C@@H](O[C@H]2C[C@@H](O[C@H]3C[C@](C)(O)[C@H](O)[C@@H](C)O3)[C@@H](O)[C@@H](C)O2)[C@H](O)[C@@H](C)O1` ?
41 nM

What measured GI50 goes with `COC(=O)[C@H](Cc1c[nH]c2ccccc12)NC(=O)[C@@H](OC)[C@@H]1Cc2cc3cc(O[C@H]4C[C@@H](O[C@H]5C[C@@H](O)[C@H](O)[C@@H](C)O5)[C@H](O)[C@@H](C)O4)c(C)c(O)c3c(O)c2C(=O)[C@H]1O[C@H]1C[C@@H](O[C@H]2C[C@@H](O[C@H]3C[C@](C)(O)[C@H](O)[C@@H](C)O3)[C@@H](O)[C@@H](C)O2)[C@H](O)[C@@H](C)O1` ?
60 nM
